- System: IGR37-XP cells (Vemurafenib-resistant)
- PROTOCOL_DESCRIPTION: Kinase inhibitor library screening, PrestoBlue cell viability, 1 or 10 μM, 72 h
- CONDITION_LABEL: Homo sapiens, IGR-37, 72 h, read-out: cell viability, IGR37 XP, 1μΜ
VALUE_KIND: viability at 1 µM
Field note: include the unit after the figure.

Some solved entries appear below for comparison.
- MOLECULE: "CN(C)Cc1cccc(N/C(=C2\\C(=O)Nc3cc(C(N)=O)ccc32)c2ccccc2)c1 [BIX 02188]"
  VALUE_KIND: "viability at 1 µM"
  MEASURED: "107%"
- MOLECULE: "Cc1cc(C(=O)NOCCO)c(Nc2ccc(I)cc2F)n(C)c1=O [AZD8330, reference compound]"
  VALUE_KIND: "viability at 1 µM"
  MEASURED: "45.7%"
- MOLECULE: "CC(C)(C)c1cc(NC(=O)Nc2ccc(-c3cn4c(n3)sc3cc(OCCN5CCOCC5)ccc34)cc2)no1 [Quizartinib (AC220)]"
  VALUE_KIND: "viability at 1 µM"
  MEASURED: "43.9%"
- MOLECULE: "C=CC(=O)Nc1cccc(Oc2nc(Nc3ccc(N4CCN(C)CC4)cc3OC)ncc2Cl)c1 [WZ4002]"
  VALUE_KIND: "viability at 1 µM"
  MEASURED: "85.2%"

Lookup: Given the molecule C[C@@H]1COC(Nc2ccc3ncnc(Nc4ccc(OCc5nccs5)c(Cl)c4)c3c2)=N1 [ARRY334543] , what is its reported viability at 1 µM?
Found: 71.6%

Lookup: Given the molecule Cc1cc(Nc2cc(N3CCN(C)CC3)nc(/C=C/c3ccccc3)n2)n[nH]1 [ENMD-2076] , what is its reported viability at 1 µM?
Found: 89.3%

Lookup: Given the molecule CN(C)C/C=C/C(=O)Nc1cc2c(Nc3ccc(F)c(Cl)c3)ncnc2cc1O[C@H]1CCOC1 [Afatinib (BIBW2992)] , what is its reported viability at 1 µM?
Found: 94.7%

Lookup: Given the molecule Cc1cc(Nc2ncnc3ccc(NC4=NC(C)(C)CO4)cc23)ccc1Oc1ccn2ncnc2c1 [Arry-380] , what is its reported viability at 1 µM?
Found: 99.7%

---

- Test system: 501Mel-GP cells (Dabrafenib-resistant)
- PROTOCOL_DESCRIPTION: Kinase inhibitor library screening, PrestoBlue cell viability, 1 or 10 μM, 72 h
- CONDITION_LABEL: 501Mel GP; 1μΜ; 72 h; in %
We begin with a simple list: items and their reported Cell viability in kinase inhibitor library screening, 501Mel GP, 1μΜ.
Kindly provide the number alone.

Some solved entries appear below for comparison.
- COMPOUND: "Cc1c(CN2CCN(C(=O)[C@H](C)O)CC2)sc2c(N3CCOCC3)nc(-c3cnc(N)nc3)nc12 [GDC-0980 (RG7422)]"
  MEASURED: 21.4
- COMPOUND: "Cn1cc(C2=C(c3cn(C4CCN(Cc5ccccn5)CC4)c4ccccc34)C(=O)NC2=O)c2ccccc21"
  MEASURED: 92.5
- COMPOUND: "CO[C@H]1C[C@@H]2CC[C@@H](C)[C@@](O)(O2)C(=O)C(=O)N2CCCC[C@H]2C(=O)O[C@H]([C@H](C)C[C@@H]2CC[C@@H](O)[C@H](OC)C2)CC(=O)[C@H](C)/C=C(\\C)[C@@H](O)[C@@H](OC)C(=O)[C@H](C)C[C@H](C)/C=C/C=C/C=C/1C [Rapamycin (Sirolimus)]"
  MEASURED: 69.9

// below: Cell viability in kinase inhibitor library screening, 501Mel GP, 1μΜ requested for another compound
Lookup: Given the compound CCn1nnc2c(N3CCOCC3)nc(-c3ccc(NC(=O)Nc4ccc(C(=O)N5CCN(C)CC5)cc4)cc3)nc21 , what is its reported Cell viability in kinase inhibitor library screening, 501Mel GP, 1μΜ?
Found: 21.4
